System: 786-0
ASSAY NOTES: NCI tumour cell line growth inhibition, 48 h
The source made the active and inactive calls. Cut-off read from the data, not from the text of the source: active = GI50 up to about 1.1 µM and inactive = higher.
Just give me one of these, please: active, inactive

{"COMPOUND": "CN1CCc2c1nc(-c1ccc(Cl)cc1)c1c2N(C)CC1", "QUALITATIVE LABEL": "inactive"}
{"COMPOUND": "CC(C)C(=O)NCC[C@@H](CNC(=O)OC(C)(C)C)NC(=O)OC(C)(C)C", "QUALITATIVE LABEL": "inactive"}
{"COMPOUND": "COc1ccc(-c2nc3ncccn3c2-c2ccc(SC)cc2)cc1", "QUALITATIVE LABEL": "inactive"}
{"COMPOUND": "Cn1c(=O)cc2[nH]c3ccccc3n2c1=O", "QUALITATIVE LABEL": "inactive"}
{"COMPOUND": "CC1=C/C(=N\\NS(=O)(=O)c2ccc([N+](=O)[O-])cc2)CC(C)(C)C1", "QUALITATIVE LABEL": "inactive"}
{"COMPOUND": "CN1C(=O)c2ccccc2NC(=O)C12O[C@@H]2c1ccccc1 (some centres not stated)", "QUALITATIVE LABEL": "inactive"}
{"COMPOUND": "CC(=O)c1ccc(Nc2c3ccccc3nc3occc23)cc1", "QUALITATIVE LABEL": "active"}
{"COMPOUND": "OCc1cn(Cc2ccccc2)c2ccccc12", "QUALITATIVE LABEL": "inactive"}

Q: Please state the recorded outcome for this compound: O=C1Nc2ccccc2/C1=N/NC(=S)Nc1cccc(Cl)c1
A: inactive

Q: Please give the result for CCCCCCCC(=O)NS(=O)(=O)c1ccccc1 too.
A: inactive

Q: Please give the result for CCOC(=O)c1c(C)n(-c2ccc(C)cc2)c2c1cc(O)c1[nH]c3c(c12)CCCC3 too.
A: inactive

Q: Please give the result for Cc1cn(CC2=NCCN2)c(=O)[nH]c1=O too.
A: inactive
